measurement description: soluble on expression in E. coli; label from the status in PepcDB or PDB records
measurement kind: soluble on expression in E. coli

1) MEQKTENKWPLQFEVIEEIKQVGRWSAPSWRLGDIHLYEKVNETQDNVSLFERDLEIFRDERTDYRFNLSSQDPKLFFAFENDNDQLTPVMITASQSMIGQYMDGDYLVLSTAMPLPMQAWLEAYIGKHGELLEVRKKKRKGAGRASEQLPK	not soluble
2) MQRFVFGGKLWKFNETFGCYDDYPHVAPFLAVEHFASFPVHPPTFIFSNAAVSNILSMEEIKSVLIRLDELISSNNLHNHPCLISQAGAQATMRLASKDQLRSDWNTSVEIPFCLYVTQNGVCPRQFDYEDLHKQSQWVALFEEVILPLDKMQGSKLSKIAPHQHSSVVKNAIMKSKREKKTSCKKHSKSISGIDSSSSGCNSL	not soluble
